- system.under.test: T1, human interleukin-23 receptor (IL23R) (human, UniProt Q5VWK5 24-355, limits assumed)
- T1 construct: also called human IL23R
- T1 sequence (looked up): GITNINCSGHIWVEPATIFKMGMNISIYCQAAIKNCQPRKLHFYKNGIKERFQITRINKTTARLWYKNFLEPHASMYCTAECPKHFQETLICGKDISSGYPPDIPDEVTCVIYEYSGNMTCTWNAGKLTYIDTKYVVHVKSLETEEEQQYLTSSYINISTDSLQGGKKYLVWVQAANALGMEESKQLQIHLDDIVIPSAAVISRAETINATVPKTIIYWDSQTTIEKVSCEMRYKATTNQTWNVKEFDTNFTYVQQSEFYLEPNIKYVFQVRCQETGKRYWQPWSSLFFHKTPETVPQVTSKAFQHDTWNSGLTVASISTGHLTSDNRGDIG
- test.protocol: SPR, scFv
measured.property: koff (s⁻¹)
Answers are plain numbers, in s⁻¹.

[in] Recorded koff for Vκ1/VH1B consensus λ-capped, human IL23R specific scFv (scFv, scFv VL-linker-VH, made in E. coli; also called Vκ1VH1B capped) scFv: DIQMTQSPSSLSASVGDRVTITCQASENIYSFLAWYQQKPGKAPKLLIYSASKLAAGVPSRFSGSGSGTDFTLTISSLQPEDFATYYCQQTNRYSNPDIYNVFGGGTKLTVLGGGGGSGGGGSGGGGSGGGGSQVQLVQSGAEVKKPGASVKVSCKASGIDFNSNYYMCWVRQAPGQGLEWMGCIYVGSHVNTYYANWAKGRVTMTRDTSISTAYMELSSLRSEDTAVYYCATSGSSVLYFKFWGQGTLVTVSS , please?
[out] 0.000478
